METHOD DESCRIPTION: gradient 5% acetonitrile 3 min, to 50% in 2 min, to 85% in 15 min, held 3 min, 100 µL/min
CONDITION NOTES: column: Zorbax Extend-C18 2.1 x 50 mm; eluents: water / acetonitrile, 0.1% formic acid
READOUT LABEL: RP-LC retention time (s)

See these solved cases before continuing.
# COMPOUND, READOUT UNITS, RP-LC retention time
records = [
    ("O=C(Cn1c(=O)c2cccn2c2ccc(F)cc21)NCc1ccc(F)cc1", "s", 818),
    ("CCNS(=O)(=O)c1cc(-c2nnc(-c3ccc(OC)c(OC)c3)o2)ccc1C", "s", 833),
    ("CCN(CC)c1nc(C(=O)N2CCN(C3CCN(C)CC3)CC2)nc2nc(C)cc(C)c12", "s", 540),
    ("Cc1nc(CCNC(=O)C2CCN(S(=O)(=O)c3ccc(F)c(F)c3)CC2)cs1", "s", 724),
    ("Cc1cnn(CC(=O)N2CC(F)(F)C[C@H]2c2nc(C3CC3)no2)c1", "s", 703),
    ("O=C1CN(c2ccccc2NC(=O)c2cc(-c3ccccc3)on2)CCN1", "s", 798),
    ("CCc1nnc(-c2ccc3ccn(CC(=O)NCc4ccc(OC)c(OC)c4)c3c2)o1", "s", 745),
    ("Cc1cccc(C)c1NC(=O)Cn1cnc2nc(N3CCC(C(=O)NC4CC4)CC3)sc2c1=O", "s", 693),
]

[A] CN(C)c1ccc(CNC(=O)CN2C(=O)CCc3cc(Br)ccc32)cc1
[B] COc1ccc(-c2cc(C(=O)Nc3cc(F)cc(F)c3)sn2)cc1
Query string: Field: lower RP-LC retention time | Options: A / B In your reply, give the label of the chosen option.
Result string: A

###

METHOD DESCRIPTION: gradient 5% acetonitrile 3 min, to 50% in 2 min, to 85% in 15 min, held 3 min, 100 µL/min
CONDITION NOTES: column: Zorbax Extend-C18 2.1 x 50 mm; eluents: water / acetonitrile, 0.1% formic acid
READOUT LABEL: RP-LC retention time (s)

See these solved cases before continuing.
# COMPOUND, RP-LC retention time, s
records = [
    ("Cc1ccc2c(c1)-c1onc(C(=O)N3CCN(c4ccccn4)CC3)c1CO2", 747),
    ("CC(C)c1nn2c(S(=O)(=O)NC3CCCCC3)c(C(C)C)nc2s1", 1110),
    ("CCN(CC)CCCNC(=O)c1noc2c1CCCC2", 607),
    ("Cc1ccc(CNC(=O)C2CCc3sc(C(=O)N(C)C)cc3C2)cc1 (stereo not given)", 692),
    ("CCN1C(=O)c2cccnc2Sc2cc(NC(=O)COc3ccccc3C)ccc21", 860),
]

[a] CCN(CC)CCNCc1ccc(-c2ccccc2F)o1
[b] COC(=O)C1=CN(c2ccc(OC)cc2)c2ccc(F)cc2S1(=O)=O
Query string: I'd appreciate it if you could identify which of a and b has the greater RP-LC retention time. In your reply, give the label of the chosen option.
Result string: b

###

METHOD DESCRIPTION: gradient 5% acetonitrile 3 min, to 50% in 2 min, to 85% in 15 min, held 3 min, 100 µL/min
CONDITION NOTES: column: Zorbax Extend-C18 2.1 x 50 mm; eluents: water / acetonitrile, 0.1% formic acid
READOUT LABEL: RP-LC retention time (s)

[1] CCN(CC)c1cc(CNC(=O)Nc2cc(OC)ccc2OC)ccn1
[2] CCCC(=O)N1CCc2c([nH]c3ccccc23)C1c1ccccc1 (stereo not given)
Query string: I'd appreciate it if you could identify which of 1 and 2 has the greater RP-LC retention time. In your reply, give the label of the chosen option.
Result string: 2

###

METHOD DESCRIPTION: gradient 5% acetonitrile 3 min, to 50% in 2 min, to 85% in 15 min, held 3 min, 100 µL/min
CONDITION NOTES: column: Zorbax Extend-C18 2.1 x 50 mm; eluents: water / acetonitrile, 0.1% formic acid
READOUT LABEL: RP-LC retention time (s)

See these solved cases before continuing.
# STRUCTURE, READOUT UNITS, RP-LC retention time
records = [
    ("Cc1cccc2c(=O)n(C3CCN(S(=O)(=O)c4ccccc4F)CC3)cnc12", "s", 940),
    ("O=C(NC1CCCCC1)c1nc(Nc2ccccc2)c2ccccc2n1", "s", 861),
    ("COc1cccc(-c2nc3ccccc3n2CC(=O)N2CCC(C)CC2)c1", "s", 668),
    ("COCCOC1CCN(S(=O)(=O)c2cccc(OC)c2)CC1", "s", 811),
]

[I] O=C(COc1ncccn1)N1CCN(c2ncccn2)CC1
[II] Cn1cc(SCC(=O)Nc2cccc(F)c2)c2ccccc21
Query string: I'd appreciate it if you could identify which of I and II has the greater RP-LC retention time. In your reply, give the label of the chosen option.
Result string: II
(II: 896 s, I: 579 s)

###

METHOD DESCRIPTION: gradient 5% acetonitrile 3 min, to 50% in 2 min, to 85% in 15 min, held 3 min, 100 µL/min
CONDITION NOTES: column: Zorbax Extend-C18 2.1 x 50 mm; eluents: water / acetonitrile, 0.1% formic acid
READOUT LABEL: RP-LC retention time (s)

[A] COC(=O)c1cn(CC(=O)Nc2cc(OC)ccc2OC)c2ccccc12
[B] O=C1NC(=O)/C(=C/c2ccc(C(=O)Nc3ccc(C(=O)O)cc3)cc2)S1
Query string: I'd appreciate it if you could identify which of A and B has the greater RP-LC retention time. In your reply, give the label of the chosen option.
Result string: A
(A: 946 s, B: 648 s)

###

METHOD DESCRIPTION: gradient 5% acetonitrile 3 min, to 50% in 2 min, to 85% in 15 min, held 3 min, 100 µL/min
CONDITION NOTES: column: Zorbax Extend-C18 2.1 x 50 mm; eluents: water / acetonitrile, 0.1% formic acid
READOUT LABEL: RP-LC retention time (s)

See these solved cases before continuing.
# MOLECULE, READOUT LABEL, NUMERIC READOUT
data = [
    ("CCc1nc(OCC(=O)Nc2ccc(Cl)cc2C(F)(F)F)c2ccccc2n1", "RP-LC retention time", 942),
    ("O=C(c1ccc[nH]c1=O)N1CCC(Cn2c(COc3ccccc3)nc3ccccc32)CC1", "RP-LC retention time", 556),
    ("CSc1cccc(NC(=O)Cn2c(=O)n(-c3ccc(C)cc3)c(=O)c3c2cc(C)n3C)c1", "RP-LC retention time", 910),
    ("Cc1cc2c(=O)n(CC(=O)Nc3ccc(F)cc3Cl)ccc2s1", "RP-LC retention time", 812),
    ("COc1ccc(-c2ncc3c(n2)CCN(S(=O)(=O)c2cccc4cccnc24)C3)cc1", "RP-LC retention time", 935),
]

[A] Cc1cccc(N(C)S(=O)(=O)c2ccc3c(c2)CCCC(=O)N3)c1
[B] C[C@H](NC(=O)C(C)(C)Oc1ccc(C(F)(F)F)cn1)[C@@H](Cc1ccc(Cl)cc1)c1cccc(C#N)c1
[C] COC(=O)CC1=CC(SCC(=O)NC2CCc3ccccc32)=Nc2ccccc2N1 (stereo not drawn)
Query string: Put the molecules in ascending order of RP-LC retention time. // rank by listing labels in the order requested
Result string: C, A, B

[I] CCN(CC)S(=O)(=O)c1ccc(C)c(-c2nnc(-c3ccccc3Cl)o2)c1
[II] COC1CCC12CCN(C(=O)c1c(C)noc1C)CC2 (stereo not drawn)
Query string: I'd appreciate it if you could identify which of I and II has the greater RP-LC retention time. In your reply, give the label of the chosen option.
Result string: I

[A] Cc1ccccc1Cc1nc(-c2ccnc(N3CCOCC3)c2)no1
[B] COc1ccc(-c2ccc3ncc4c(c3c2)n(-c2ccc(N3CCNCC3)c(C(F)(F)F)c2)c(=O)n4C)cn1
Query string: I'd appreciate it if you could identify which of A and B has the greater RP-LC retention time. In your reply, give the label of the chosen option.
Result string: A

[A] COc1ccc(CNC(=O)CN2CCc3[nH]c4c(C)c(Cl)ccc4c(=O)c3C2)cc1
[B] Cc1ccc(NC(=O)N2CCCC2c2nc(-c3cccc(F)c3)no2)cc1 (stereo not drawn)
Query string: Field: lower RP-LC retention time | Options: A / B In your reply, give the label of the chosen option.
Result string: A

###

METHOD DESCRIPTION: gradient 5% acetonitrile 3 min, to 50% in 2 min, to 85% in 15 min, held 3 min, 100 µL/min
CONDITION NOTES: column: Zorbax Extend-C18 2.1 x 50 mm; eluents: water / acetonitrile, 0.1% formic acid
READOUT LABEL: RP-LC retention time (s)

See these solved cases before continuing.
# COMPOUND, RP-LC retention time [s]
rows = [
    ("CCn1c(C(=O)NC(C)CCc2ccccc2)cc2sccc21 (centres undefined)", 1110),
    ("CCn1c(=O)c(N2CCC(C(=O)NCCCN3CCCC(C)C3)CC2)nc2cccnc21 (centres undefined)", 640),
    ("COc1cc2c(cc1OC)CN(C(=O)C1CCCN1S(=O)(=O)c1ccc(F)cc1)CC2 (centres undefined)", 775),
]

[a] CCc1cccc(NC(=O)Cn2nc3cc(C)nc(Nc4ccccc4C)n3c2=O)c1
[b] O=C(Nc1cccc(Br)c1)N1CCCC1c1nc(-c2ccc(F)cc2F)no1 (centres undefined)
Query string: I'd appreciate it if you could identify which of a and b has the greater RP-LC retention time. In your reply, give the label of the chosen option.
Result string: b
(b: 1060 s, a: 711 s)
